Values from the RNAGym collection of RNA variant scans (doi:10.1073/pnas.2313332121)

B1: TPR 5TU (parent)
chain: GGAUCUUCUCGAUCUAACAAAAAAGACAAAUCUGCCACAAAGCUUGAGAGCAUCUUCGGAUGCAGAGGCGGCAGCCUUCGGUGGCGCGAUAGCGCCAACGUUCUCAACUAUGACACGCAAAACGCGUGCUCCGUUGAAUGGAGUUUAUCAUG

# Variants of: B1
# assay: polymerase ribozyme fitness, log enrichment relative to wild type (log ratio); higher = more active; in vitro selection for triplet polymerase activity
Variants at the floor of the assay were thinned out.
endpoint_label: polymerase ribozyme fitness (log ratio)

Please review the following examples before continuing.
A19U G80A: -0.164
C54U G59C G83A G117U: -0.252
U4C C85A C95G A115G: -3.75
C5A C35A U55A A91G G100U G126A A147G: ≤ -4.2
A17C A26U C75A G84A G141U: ≤ -4.2

Hey, can you go through the list below and give me polymerase ribozyme fitness (log ratio) for every item?
1. U55A A60C G62A G81A C85U G133C
2. C76U C79U G83U G94A C105U C118G C132G G136A
3. C14G C27G U55G G68A U82A G94C A107U A142G

≤ -4.2
≤ -4.2
≤ -4.2
